Multiple publications report IC50 for Leucine-rich repeat serine/threonine-protein kinase 2 (Homo sapiens); what follows is a combined list.

COc1cc(C(=O)NC2CCN(C)CC2)ccc1Nc1ccc2c(n1)N(C)c1ccccc1C(=O)N2C :: > 10000 nM
CC(C)n1cc(-c2cc(-c3ccc(C(=O)N4CCOCC4)cc3)cnc2N)nn1 :: 370 nM
Cc1c(F)ccc(-c2ccc3nc(NC(=O)[C@@H]4C[C@@H]4F)cn3c2)c1C :: 101 to 1000 nM
CC(C)n1cc(-c2cc(-c3ccc(C(=O)N4CCOCC4)c(Cl)c3)cnc2N)nn1 :: 290 nM
COc1cc(S(=O)(=O)N2CCOCC2)ccc1Nc1cc(NC2CCC2)c2c(C(F)(F)F)c[nH]c2n1 :: 301 to 1000 nM

Ask: Identify the measured IC50 of CC(=O)Nc1ccc(C)c(-c2ccc3nc(NC(=O)[C@@H]4C[C@@H]4F)cn3c2)c1 for Leucine-rich repeat serine/threonine-protein kinase 2 (Homo sapiens).
Result: > 1000 nM

Ask: Kindly state the measured IC50 obtained for N#Cc1c[nH]c2nc(Nc3ccc(C(=O)N4CCOCC4)c4c3OCCO4)cc(NC3CCCC3)c12 with Leucine-rich repeat serine/threonine-protein kinase 2 (Homo sapiens).
Result: < 100 nM

Ask: GET /values?readout=IC50&system=Leucine-rich repeat serine/threonine-protein kinase 2 (Homo sapiens)&item= Cc1ccc2c(c1-c1ccc3nc(NC(=O)[C@@H]4C[C@@H]4F)cn3c1)CC(=O)N2
Result: > 1000 nM

====

Below are IC50 values for Leucine-rich repeat serine/threonine-protein kinase 2 (Homo sapiens, UniProt Q5S007) collected from several publications.

Some entries whose results are on file:
COCCNc1cc(Nc2ccc(C(=O)N3CCOCC3)c3c2OCCO3)nc2[nH]cc(C(F)(F)F)c12 :: < 100 nM
Cc1c(F)cc(N)cc1-c1ccc2nc(NC(=O)[C@@H]3C[C@@H]3F)cn2c1 :: 10 to 100 nM
CC(C)CN1CC(n2cc(Nc3ncc(Br)c(NCCCN4CCCC4=O)n3)cn2)C1 :: 300 to 600 nM
[2H]c1c(Nc2ncc3cc(C#N)n([C@H]4COC[C@@H]4C)c3n2)c(OC2COC2C)nn1C (stereo partly drawn) :: 12 nM
[2H]C([2H])([2H])c1c2c(nn1C1([2H])CCOCC1)OCCCn1nc(Cl)c3cnc(nc31)N2 :: 6.8 nM

Ask: Returns the measured IC50 for the input molecule. Input: Cc1cccc(-c2cc(N)nc3[nH]cc(C#N)c23)c1
Result: 15 nM

Ask: Entry COc1ccc2nc(NC(=O)c3ccc(N4CCOCC4)cc3)sc2c1 : reported IC50 = ?
Result: 368 nM

====

pIC50: −log10 of the molar value.
Reported pIC50 against Leucine-rich repeat serine/threonine-protein kinase 2 (Homo sapiens, UniProt Q5S007), gathered from multiple publications, appears below.

For orientation, consider the following solved cases.
Cc1c2c(nn1C)OCCCn1nc(Cl)c3cnc(nc31)N2 :: 7.26
Cc1cc(C2CCNCC2)ccc1Nc1ncc(Cl)c(NCCCN2CCCCC2=O)n1 :: 6.52 to 7.00
CN1CCC(n2cc(Nc3ncc(C4CC4)c(NCCCN4CCCCC4=O)n3)cn2)CC1 :: < 6.22
Cc1n[nH]c2ncc(-c3cncc(NC4CCN(CCO)CC4)n3)cc12 :: > 6.30
CCc1cc(N2CCN(C)CC2)c(F)cc1Nc1ncc(C(F)(F)F)c(NCCCN2CCOCCC2=O)n1 :: 7.00 to 9.00

Ask: State its pIC50 on Leucine-rich repeat serine/threonine-protein kinase 2 (Homo sapiens, UniProt Q5S007): COc1cc(S(C)(=O)=O)ccc1Nc1cc(NCC(C)C)c2c(C(F)(F)F)c[nH]c2n1
Result: 6.00 to 6.52

Ask: Query pIC50 on Leucine-rich repeat serine/threonine-protein kinase 2 (Homo sapiens, UniProt Q5S007) for O=C(Nc1cn2cc(-c3cccc(F)c3-c3ccco3)ccc2n1)[C@@H]1C[C@@H]1F
Result: < 6.00

Ask: What reported pIC50 corresponds to O=C(Nc1cn2cc(-c3cnc4[nH]ccc4c3)ccc2n1)[C@@H]1C[C@@H]1F on Leucine-rich repeat serine/threonine-protein kinase 2 (Homo sapiens, UniProt Q5S007)?
Result: 6.00 to 7.00
